Would you mind telling me the reported EC50 of each entry?
Tested on: PaTu-8988-T
Assay: cells
Parameters: ATPlite luminescence viability of PDAC cell lines, 11-dose single-agent curves, 4-parameter fit
Settings: Homo sapiens, PaTu 8988t, 72 h, read-out: EC50 [nM]
Response body: numeric value in nM, unit text excluded.

Consider the compound Cc1cnc(Nc2ccc(OCCN3CCCC3)cc2)nc1Nc1cccc(S(=O)(=O)NC(C)(C)C)c1 [Fedratinib] and give its measured EC50.
274

// repeat for CC(=O)Nc1cccc(-n2c(=O)n(C3CC3)c(=O)c3c(Nc4ccc(I)cc4F)n(C)c(=O)c(C)c32)c1 [Trametinib] and report
7.98

// repeat for CCn1c(=O)c(-c2cc(NC(=O)Nc3ccccc3)c(F)cc2Br)cc2cnc(NC)cc21 [Ripretinib] and report
717

// repeat for COc1cc2nccc(Oc3ccc(NC(=O)C4(C(=O)Nc5ccc(F)cc5)CC4)cc3)c2cc1OC [Cabozantinib] and report
4020

// repeat for CCOc1cc2ncc(C#N)c(Nc3ccc(OCc4ccccn4)c(Cl)c3)c2cc1NC(=O)/C=C/CN(C)C [Neratinib] and report
835

// repeat for C=CC(=O)Nc1cccc(Nc2nc(Nc3ccc(N4CCN(C(C)=O)CC4)cc3OC)ncc2C(F)(F)F)c1 [Rociletinib] and report
4940

// repeat for CO[C@@H]1[C@H](N(C)C(=O)c2ccccc2)C[C@H]2O[C@]1(C)n1c3ccccc3c3c4c(c5c6ccccc6n2c5c31)C(=O)NC4 [Midostaurin] and report
385

====

Biological target: CSNK2A2 (Homo sapiens)
Construct: endogenous in cells
Test: Kinobeads competition pulldown in AsPC-1 lysate
Conditions: Kinobeads residual binding curve
Reported Metric: EC50

Consider the compound CNCc1ccc(-c2cc(-c3nc(-c4ccc(S(=O)(=O)C(C)C)cc4)cnc3N)on2)cc1 [Berzosertib] and give its measured EC50.
406 nM

====

Tested on: p-sites in DNA-damaged AsPC-1 cells
Assay: decryptM dose-resolved phosphoproteomics of ATRi in GEM-pre-treated cells
Assay type: cell-based, human
Settings: HMGA1-pS44
Would you mind telling me the reported Log2 PTM response (GEM+ATRi vs. GEM) of each entry?
The answer should be written as a number, with no unit following it.

Consider the molecule CNCc1ccc(-c2cc(-c3nc(-c4ccc(S(=O)(=O)C(C)C)cc4)cnc3N)on2)cc1 [Berzosertib] and give its measured Log2 PTM response (GEM+ATRi vs. GEM).
-2.9

// repeat for Nc1nn2cc(F)cnc2c1C(=O)Nc1cncc(F)c1N1CCC(C(=O)N2CCN(C3COC3)CC2)CC1 [Gartisertib] and report
-2.1

// repeat for C[C@@H]1COCCN1c1cc(-c2ccnn2C)c2ccnc(-c3ccn[nH]3)c2n1 [Elimusertib] and report
-1.5

// repeat for C[C@@H]1COCCN1c1cc(C2([S@](C)(=N)=O)CC2)nc(-c2cc[nH]c3nccc2-3)n1 [Ceralasertib] and report
-1.7

====

Tested on: AsPC-1 cells
Assay: Cell proliferation assay, chemodrug + ATR inhibitor (Incucyte confluence, 72 h);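 note: underlying read-out for every value is AsPC-1 confluence after 72 h incubation at 37 °C and 5% CO2, divided by that well's starting confluence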
Conditions: Homo sapiens, ASPC1, 72 h, AsPC1; Experiment GEM (Gemcitabine alone) in the Ceralasertib series; single replicates R1-R3
Reported Metric: EC50 (µM)
Response body: numeric value in µM, unit text excluded.

Please state recorded EC50 (tested on AsPC-1 cells) of Nc1ccn([C@@H]2O[C@H](CO)[C@@H](O)C2(F)F)c(=O)n1
0.0426

====

Biological target: GSK3A ; P49840 (Homo sapiens, UniProt P49840)
Assay: biochemical
Would you mind telling me the reported Kd of each entry?
Response body: numeric value in nM, unit text excluded.

Consider the molecule Nc1nn2cc(F)cnc2c1C(=O)Nc1cncc(F)c1N1CCC(C(=O)N2CCN(C3COC3)CC2)CC1 [Gartisertib] and give its measured Kd.
0.719

// repeat for CNCc1ccc(-c2cc(-c3nc(-c4ccc(S(=O)(=O)C(C)C)cc4)cnc3N)on2)cc1 [Berzosertib] and report
39.7

====

System: PDO UME008
Assay: PDO viability assay (CellTiter-Glo, 72 h)
Type: cell-based, human
Conditions: Homo sapiens, SET-2, PDO UME008 (PDO set 2); Experiment GEM (GEM alone); mean of replicates; read-out: EC50 mean
Reported Metric: EC50 (nM)
Response body: numeric value in nM, unit text excluded.

Please state recorded EC50 (tested on PDO UME008) of Nc1ccn([C@@H]2O[C@H](CO)[C@@H](O)C2(F)F)c(=O)n1 [GEM, Gemcitabine]
26.4

====

Test system: MiaPaCa-2
Experiment: cells
Parameters: ATPlite luminescence viability of PDAC cell lines, 11-dose single-agent curves, 4-parameter fit
Conditions: Homo sapiens, MIA PaCa-2, 72 h, read-out: EC50 [nM]
Would you mind telling me the reported EC50 of each entry?
Response body: numeric value in nM, unit text excluded.

Consider the compound Cn1ncnc1[C@H]1c2n[nH]c(=O)c3cc(F)cc(c23)N[C@@H]1c1ccc(F)cc1 and give its measured EC50.
825

// repeat for Cc1cc2cc(Oc3ccnc(Nc4cccc(CS(=O)(=O)NCCN(C)C)c4)n3)ccc2[nH]1 and report
3080

// repeat for CC(=O)Nc1cccc(-n2c(=O)n(C3CC3)c(=O)c3c(Nc4ccc(I)cc4F)n(C)c(=O)c(C)c32)c1 and report
3.92

// repeat for CCN1CCN(Cc2ccc(Nc3ncc(F)c(-c4cc(F)c5nc(C)n(C(C)C)c5c4)n3)nc2)CC1 and report
82.2

====

Test system: Dan-G
Assay: cells
Design: Viability of PDAC cell lines, ATPlite luminescence, 11-dose single-agent curve fit
Conditions: 72 h; read-out: EC50
Reported Metric: EC50 (nM)
Response body: numeric value in nM, unit text excluded.

Consider the compound O=C(Nc1cnn2ccc(N3CCC[C@@H]3c3cc(F)ccc3F)nc12)N1CC[C@H](O)C1 and give its measured EC50.
451

====

Biological target: TP53RK ; Q96S44 (Homo sapiens, UniProt Q96S44)
Experiment: biochemical
Reported Metric: pKd
API: returns pKd as number; meaning -log10 of concentration in mol/L.

Please state recorded pKd (tested on TP53RK ; Q96S44 (Homo sapiens, UniProt Q96S44)) of Nc1nn2cc(F)cnc2c1C(=O)Nc1cncc(F)c1N1CCC(C(=O)N2CCN(C3COC3)CC2)CC1 [Gartisertib]
6.95

====

System: BxPC-3
Experiment: cells
Set-up: ATPlite luminescence viability of PDAC cell lines, 11-dose single-agent curves, 4-parameter fit
Conditions: Homo sapiens, BXPC-3, 72 h, read-out: EC50 [nM]
Would you mind telling me the reported EC50 of each entry?
Response body: numeric value in nM, unit text excluded.

Please state recorded EC50 (tested on BxPC-3) of CC(C)n1nc(-c2ccc3oc(N)nc3c2)c2c(N)ncnc21 [Sapanisertib]
11.2

// repeat for CN1CCN(c2ccc(C(=O)Nc3n[nH]c4ccc(Cc5cc(F)cc(F)c5)cc34)c(NC3CCOCC3)c2)CC1 [Entrectinib] and report
3500

// repeat for C=CC(=O)Nc1cccc(Nc2nc(Nc3ccc(N4CCN(C(C)=O)CC4)cc3OC)ncc2C(F)(F)F)c1 [Rociletinib] and report
4820

// repeat for C[C@@H]1COC(Nc2ccc3ncnc(Nc4ccc(OCc5nccs5)c(Cl)c4)c3c2)=N1 [Varlitinib] and report
1760

// repeat for CC(=O)c1cc2c(o1)C(=O)c1ccccc1C2=O [Napabucasin] and report
493

// repeat for CCOc1cc2ncc(C#N)c(Nc3ccc(OCc4ccccn4)c(Cl)c3)c2cc1NC(=O)/C=C/CN(C)C [Neratinib] and report
1210

// repeat for Cc1nc(NC(=O)N2CCC[C@H]2C(N)=O)sc1-c1ccnc(C(C)(C)C(F)(F)F)c1 [Alpelisib] and report
1640

// repeat for CCN1CCN(Cc2ccc(Nc3ncc(F)c(-c4cc(F)c5nc(C)n(C(C)C)c5c4)n3)nc2)CC1 [Abemaciclib] and report
337

// repeat for C=CC(=O)Nc1cccc(Oc2nc(Nc3ccc(N4CCN(C)CC4)cc3)nc3ccsc23)c1 [Olmutinib] and report
5220

// repeat for COc1cc2c(Oc3ccc4[nH]c(C)cc4c3F)ncnc2cc1OCCCN1CCCC1 [Cediranib] and report
7970

// repeat for CNC(=O)c1cc(Oc2ccc(NC(=O)Nc3ccc(Cl)c(C(F)(F)F)c3)cc2)ccn1 [Sorafenib] and report
10200

// repeat for CN1CCN(CCOc2cc(OC3CCOCC3)c3c(Nc4c(Cl)ccc5c4OCO5)ncnc3c2)CC1 [Saracatinib] and report
863

// repeat for CC(C)(C)c1nc(-c2cccc(NS(=O)(=O)c3c(F)cccc3F)c2F)c(-c2ccnc(N)n2)s1 [Dabrafenib] and report
348

// repeat for O=C(/C=C\n1cnc(-c2cc(C(F)(F)F)cc(C(F)(F)F)c2)n1)NNc1cnccn1 [Selinexor] and report
114

====

System: PDO B250
Test: PDO viability assay (CellTiter-Glo, 72 h)
Type: cell-based, human
Conditions: Homo sapiens, GEM alone, read-out: EC50 mean
Reported Metric: pEC50
API: returns pEC50 as number; meaning -log10 of concentration in mol/L.

Consider the molecule Nc1ccn([C@@H]2O[C@H](CO)[C@@H](O)C2(F)F)c(=O)n1 and give its measured pEC50.
6.55

Cited source: paper PMC11876601
